List of Adsorption values.
# test: Adsorption (surface tension lowering), modified Wilhelmy surface balance
# Format: physicochemical
# condition_parameters: equilibrium adsorption after three (3) minutes spreading time; peptide 0.5 mg/ml (2% of solids)
No end group written: not given here.
Answer in dynes/cm, number only, no unit symbol.

Form field: reported Adsorption of SP-B(12-60): synthesized SP-B peptide fragment, position 12-60, 49 amino acids (RALIKRIQAMIPKGALAVAVAQVCRVVPLVAGGICQCLAERYSVILLDT; ends and bridges not checked; cysteine pairing not given here; UniProt P07988 212-260, looked up, fragment)
41.0

Also SP-B(27-78): synthesized SP-B peptide fragment, position 27-78, 52 amino acids (LAVAVAQVCRVVPLVAGGICQCLAERYSVILLDTLLGRMLPQLVCRLVLRCS; ends and bridges not checked; cysteine pairing not given here; UniProt P07988 227-278, looked up, fragment) , if possible.
40.0

Item: SP-B(1-60): synthesized SP-B peptide fragment, position 1-60, 60 amino acids (FPIPLPYCWLCRALIKRIQAMIPKGALAVAVAQVCRVVPLVAGGICQCLAERYSVILLDT; ends and bridges not checked; cysteine pairing not given here; UniProt P07988 201-260, looked up, fragment)
42.0

Next:
Please report the recorded Adsorption for SP-B(30-60): synthesized SP-B peptide fragment, position 30-60 (AVAQVCRVVPLVAGGICQCLAERYSVILLDT; ends and bridges not checked; cysteine pairing not given here; UniProt P07988 230-260, looked up, fragment) .
41.0
